meta.source: ChEMBL document CHEMBL4411299

# ASSAY_METHOD_TEXT: AUC (0 to t) in female Sprague-Dawley rat at 1.5 mg/kg, iv administered as single dose by LC-MS/MS analysis
# Type: ADME, organism-based
# CONDITION_INFO: in vivo
MEASURED_PARAMETER: AUC(0-t) (ng·h/mL)
Just the number please, in ng·h/mL, no unit attached.

# AUC(0-t) of COC(=O)N1N=C(c2cccc(C)c2)CC1c1cc(OC)c(OC)c(OC)c1 (stereo unspecified) = 319

* * *

# ASSAY_METHOD_TEXT: Cmax in Sprague-Dawley rat at 1.5 mg/kg, iv administered as single dose by LC-MS/MS analysis
# Format: ADME, organism-based
# Parameters: dose 1.5 mg/kg, route intravenous
# CONDITION_INFO: in vivo
MEASURED_PARAMETER: Cmax (ng/mL)
Respond with the bare value in ng/mL.

Given item COC(=O)N1N=C(c2cccc(C)c2)CC1c1cc(OC)c(OC)c(OC)c1 (stereo unspecified) , the value recorded as its Cmax is 594

* * *

Measured log10 GI50, listed per entry.
# Test system: A549
# ASSAY_METHOD_TEXT: Antiproliferative activity against human A549 cells after 48 hrs by MTT assay
# Assay type: functional
# CONDITION_INFO: A549, 48 h
Scale: log10; quantity: GI50; unit before log: µM

CCOC(=O)N1N=C(c2ccccc2)CC1c1cc(OC)c(OC)c(OC)c1 (centres undefined) = 0.82

Entry COC(=O)N1N=C(c2cccc(Cl)c2)CC1c1cc(OC)c(OC)c(OC)c1 (centres undefined) ; log10 GI50 = -0.47

Entry COC(=O)N1N=C(c2ccccc2)CC1c1ccc(OC)cc1 (centres undefined) — recorded log10 GI50 = 1.18

Record COC(=O)N1N=C(c2cccc(O)c2)CC1c1cc(OC)c(OC)c(OC)c1 (centres undefined) . Reported log10 GI50: 0.50

Form field log10 GI50, entry COC(=O)N1N=C(c2ccc(OC)cc2)CC1c1cc(OC)c(OC)c(OC)c1 (centres undefined) : 0.53

Per the records, this compound ( COC(=O)N1N=C(c2ccccc2)CC1c1ccc(OC)c(OC)c1 (centres undefined) ) has log10 GI50 equal to 0.86

Recorded result, COC(=O)N1N=C(c2ccccc2)CC1c1c(OC)cc(OC)cc1OC (centres undefined) , log10 GI50: 0.77

Summary for this compound, COc1ccc(/C=C\c2cc(OC)c(OC)c(OC)c2)cc1OP(=O)([O-])[O-].[Na+].[Na+] [FOSBRETABULIN DISODIUM] : log10 GI50 is -0.80

Looking up COC(=O)N1N=C(c2cccc(OC)c2)CC1c1cc(OC)c(OC)c(OC)c1 (centres undefined) , I see its log10 GI50 listed as 0.41

Reported log10 GI50 ( COC(=O)N1N=C(c2ccc(OC)c(OC)c2)CC1c1cc(OC)c(OC)c(OC)c1 (centres undefined) ) = 0.59

GET /value?item= CCOc1cccc(C2=NN(C(=O)OC)C(c3cc(OC)c(OC)c(OC)c3)C2)c1 (centres undefined) &field=log10 GI50 returns 0.72

The compound listed as COC(=O)N1N=C(c2cc(OC)c(OC)c(OC)c2)CC1c1cc(OC)c(OC)c(OC)c1 (centres undefined) has a reported log10 GI50 of 1.10

Looking up CCOC(=O)N1N=C(c2cccc(OC)c2)CC1c1cc(OC)c(OC)c(OC)c1 (centres undefined) , I see its log10 GI50 listed as 0.77

Looking up COC(=O)N1N=C(c2ccccc2)CC1c1ccc(OC)c(O)c1 (centres undefined) , I see its log10 GI50 listed as 0.95

* * *

# ASSAY_METHOD_TEXT: Apparent volume of distribution in male Sprague-Dawley rat at 1.5 mg/kg, iv administered as single dose by LC-MS/MS analysis
# Format: ADME, organism-based
# CONDITION_INFO: in vivo, read-out: Vd(app)
MEASURED_PARAMETER: Vd (L/kg)
Note: unit L/kg is implicit; provide only the numeric part.

The measured Vd associated with COC(=O)N1N=C(c2cccc(C)c2)CC1c1cc(OC)c(OC)c(OC)c1 (stereo unspecified) reads 3.82

* * *

# ASSAY_METHOD_TEXT: AUC (0 to t) in male Sprague-Dawley rat at 1.5 mg/kg, iv administered as single dose by LC-MS/MS analysis
# Type: ADME, organism-based
# CONDITION_INFO: in vivo
MEASURED_PARAMETER: AUC(0-t)
Respond with a number, then the unit of measure.

Notebook: COC(=O)N1N=C(c2cccc(C)c2)CC1c1cc(OC)c(OC)c(OC)c1 (stereo unspecified) , AUC(0-t) read as 475 ng·h/mL

* * *

# ASSAY_METHOD_TEXT: Clearance in male Sprague-Dawley rat at 1.5 mg/kg, iv administered as single dose by LC-MS/MS analysis
# Format: ADME, organism-based
# CONDITION_INFO: in vivo
MEASURED_PARAMETER: clearance

// field: clearance; key: COC(=O)N1N=C(c2cccc(C)c2)CC1c1cc(OC)c(OC)c(OC)c1 (stereo unspecified) ; value = 51 mL/min/kg

* * *

# ASSAY_METHOD_TEXT: Cmax in female Sprague-Dawley rat at 1.5 mg/kg, iv administered as single dose by LC-MS/MS analysis
# Format: ADME, organism-based
# Design: dose 1.5 mg/kg, route intravenous
# CONDITION_INFO: in vivo
MEASURED_PARAMETER: Cmax (µg/mL)
Quick note: give the figure in µg/mL, leave out the unit.

Entry COC(=O)N1N=C(c2cccc(C)c2)CC1c1cc(OC)c(OC)c(OC)c1 (stereo unspecified) — recorded Cmax = 0.531

* * *

# ASSAY_METHOD_TEXT: MRT (0 to infinity) in female Sprague-Dawley rat at 1.5 mg/kg, iv administered as single dose by LC-MS/MS analysis
# Type: ADME, organism-based
# CONDITION_INFO: in vivo
MEASURED_PARAMETER: MRT inf (h)
Note: unit h is implicit; provide only the numeric part.

Lab note: COC(=O)N1N=C(c2cccc(C)c2)CC1c1cc(OC)c(OC)c(OC)c1 (stereo unspecified) gave MRT inf of 1.18

* * *

# System: HT-29
# ASSAY_METHOD_TEXT: Antiproliferative activity against human HT-29 cells after 48 hrs by MTT assay
# Format: functional
# CONDITION_INFO: HT-29, 48 h
Reported GI50 values are given for each entry in this list.

Example entries and their recorded answers appear below.
COc1cc(C2CC(c3ccccc3)=NN2C(=O)OCc2ccccc2)cc(OC)c1OC (stereo not drawn) = > 10 µM
COc1cc(C2CC(c3cccc(O)c3)=NN2C(=O)OCc2ccccc2)cc(OC)c1OC (stereo not drawn) = > 10 µM

Shift focus to the following entry.
Entry COC(=O)N1N=C(c2ccccc2)CC1c1c(OC)cc(OC)cc1OC (stereo not drawn) — recorded GI50 = > 10 µM

* * *

# Tested on: HepG2
# ASSAY_METHOD_TEXT: Antiproliferative activity against human HepG2 cells after 48 hrs by MTT assay
# Format: functional
# CONDITION_INFO: HepG2, 48 h
Consider the cut-off 6 µM. If the recorded GI50 is strictly smaller, the label is criterion met; if not, the label is criterion not met.

CCCOC(=O)N1N=C(c2cccc(O)c2)CC1c1cc(OC)c(OC)c(OC)c1 (configuration not stated) = criterion not met
COc1cccc(C2=NN(C(=O)OCc3ccccc3)C(c3cc(OC)c(OC)c(OC)c3)C2)c1 (configuration not stated) = criterion not met
COc1ccc(C2=NN(C(=O)OCc3ccccc3)C(c3cc(OC)c(OC)c(OC)c3)C2)cc1 (configuration not stated) = criterion not met

Task item: Is the reported GI50 for CCCOC(=O)N1N=C(c2cccc(OC)c2)CC1c1cc(OC)c(OC)c(OC)c1 (configuration not stated) strictly below 6 µM?
Reply: criterion not met

Task item: For this compound, is GI50 lower than 6 µM? CCCOC(=O)N1N=C(c2ccc(OC)cc2)CC1c1cc(OC)c(OC)c(OC)c1 (configuration not stated)
Reply: criterion not met

Task item: Determine whether this compound shows GI50 lower than 6 µM (ties excluded): COC(=O)N1N=C(c2ccccc2)CC1c1ccccc1 (configuration not stated)
Reply: criterion not met

Task item: Does the reported GI50 of the following compound sit strictly below 6 µM? COc1cc(C2CC(c3ccccc3)=NN2C(=O)OCc2ccccc2)cc(OC)c1OC (configuration not stated)
Reply: criterion not met

Task item: Input CCCOC(=O)N1N=C(c2ccccc2)CC1c1cc(OC)c(OC)c(OC)c1 (configuration not stated) ; condition: GI50 strictly below 6 µM. Does it hold?
Reply: criterion not met

Task item: # check: GI50 < 6 µM for COc1ccc(/C=C\c2cc(OC)c(OC)c(OC)c2)cc1OP(=O)([O-])[O-].[Na+].[Na+] [FOSBRETABULIN DISODIUM]
Reply: criterion met

Task item: Does this compound meet the criterion GI50 < 6 µM? COc1cc(C2CC(c3cccc(O)c3)=NN2C(=O)OCc2ccccc2)cc(OC)c1OC (configuration not stated)
Reply: criterion not met

Task item: Just wondering, is GI50 of COC(=O)N1N=C(c2ccc(O)cc2)CC1c1cc(OC)c(OC)c(OC)c1 (configuration not stated) below 6 µM?
Reply: criterion not met

Task item: For COC(=O)N1N=C(c2ccccc2)CC1c1ccc(OC)cc1 (configuration not stated) , is the recorded GI50 below the cut-off of 6 µM?
Reply: criterion not met

Task item: Check if GI50 falls below 6 µM for CCOc1cccc(C2=NN(C(=O)OC)C(c3cc(OC)c(OC)c(OC)c3)C2)c1 (configuration not stated) .
Reply: criterion not met

Task item: Strictly below 6 µM in GI50? COC(=O)N1N=C(c2cccc(C)c2)CC1c1cc(OC)c(OC)c(OC)c1 (configuration not stated)
Reply: criterion met

Task item: Consider the compound COC(=O)N1N=C(c2cccc(O)c2)CC1c1cc(OC)c(OC)c(OC)c1 (configuration not stated) . Is its GI50 strictly less than 6 µM?
Reply: criterion met

Task item: Does the reported GI50 of CCOC(=O)N1N=C(c2cccc(O)c2)CC1c1cc(OC)c(OC)c(OC)c1 (configuration not stated) stay below 6 µM?
Reply: criterion met
